assay: Toxicokinetic, plasma concentration of compound I-6-II after empty liposome preparation; type: in vivo, cynomolgus monkeys; details: female, cynomolgus monkey, plasma, im, 1200 ug, empty liposome high-dosage group (1200 μg compound I-6-II/animal), intramuscular, D 1, female, Mean
parameter: Tmax (h)

[
  {
    "smiles.input": "CCCCCCCCCOC(=O)CCCCCCCN(CCCCCCCC(=O)OC(CCCCCCCC)CCCCCCCC)[C@@H]1CCC[C@H](O)C1",
    "observed.measurement": 5
  }
]

###

Assay: Toxicokinetic, plasma concentration of compound I-6-II after empty liposome preparation
Type: in vivo, cynomolgus monkeys
Details: male, cynomolgus monkey, plasma, im, 300 ug, empty liposome low-dosage group (300 μg compound I-6-II/animal), intramuscular, D 29, male, Mean
Protocol: 1.9078 g of Compound I-6-II, 0.3985 g of DSPC, 0.7575 g of CHO-HP and 0.1972 g of PEG-DMG (average molecular weight of 2000) were weighed in the molar ratio of 49.5:10:39:1.5, dissolved in absolute ethanol and diluted to 237.5 mL to obtain an alcohol phase. The alcohol phase was mixed and encapsulated by using a microfluidic device (MPE-L^2), with an acetic acid-sodium acetate buffer (0.2 mol/L, pH=5) as the aqueous phase, and a volume ratio of aqueous phase:alcohol phase of 3:1. […]

[
  {
    "molecule": "CCCCCCCCCOC(=O)CCCCCCCN(CCCCCCCC(=O)OC(CCCCCCCC)CCCCCCCC)[C@@H]1CCC[C@H](O)C1 [Compound (I-6-II)]",
    "AUC(0-t)": "623 ng·h/mL"
  }
]
